Biological target: KDM5B (Homo sapiens)
Construct: Full length of KDM5B and KDM4C protein were purchased from Active Motif; purchased Active Motif 31832
Sequence (Q9UGL1 whole entry): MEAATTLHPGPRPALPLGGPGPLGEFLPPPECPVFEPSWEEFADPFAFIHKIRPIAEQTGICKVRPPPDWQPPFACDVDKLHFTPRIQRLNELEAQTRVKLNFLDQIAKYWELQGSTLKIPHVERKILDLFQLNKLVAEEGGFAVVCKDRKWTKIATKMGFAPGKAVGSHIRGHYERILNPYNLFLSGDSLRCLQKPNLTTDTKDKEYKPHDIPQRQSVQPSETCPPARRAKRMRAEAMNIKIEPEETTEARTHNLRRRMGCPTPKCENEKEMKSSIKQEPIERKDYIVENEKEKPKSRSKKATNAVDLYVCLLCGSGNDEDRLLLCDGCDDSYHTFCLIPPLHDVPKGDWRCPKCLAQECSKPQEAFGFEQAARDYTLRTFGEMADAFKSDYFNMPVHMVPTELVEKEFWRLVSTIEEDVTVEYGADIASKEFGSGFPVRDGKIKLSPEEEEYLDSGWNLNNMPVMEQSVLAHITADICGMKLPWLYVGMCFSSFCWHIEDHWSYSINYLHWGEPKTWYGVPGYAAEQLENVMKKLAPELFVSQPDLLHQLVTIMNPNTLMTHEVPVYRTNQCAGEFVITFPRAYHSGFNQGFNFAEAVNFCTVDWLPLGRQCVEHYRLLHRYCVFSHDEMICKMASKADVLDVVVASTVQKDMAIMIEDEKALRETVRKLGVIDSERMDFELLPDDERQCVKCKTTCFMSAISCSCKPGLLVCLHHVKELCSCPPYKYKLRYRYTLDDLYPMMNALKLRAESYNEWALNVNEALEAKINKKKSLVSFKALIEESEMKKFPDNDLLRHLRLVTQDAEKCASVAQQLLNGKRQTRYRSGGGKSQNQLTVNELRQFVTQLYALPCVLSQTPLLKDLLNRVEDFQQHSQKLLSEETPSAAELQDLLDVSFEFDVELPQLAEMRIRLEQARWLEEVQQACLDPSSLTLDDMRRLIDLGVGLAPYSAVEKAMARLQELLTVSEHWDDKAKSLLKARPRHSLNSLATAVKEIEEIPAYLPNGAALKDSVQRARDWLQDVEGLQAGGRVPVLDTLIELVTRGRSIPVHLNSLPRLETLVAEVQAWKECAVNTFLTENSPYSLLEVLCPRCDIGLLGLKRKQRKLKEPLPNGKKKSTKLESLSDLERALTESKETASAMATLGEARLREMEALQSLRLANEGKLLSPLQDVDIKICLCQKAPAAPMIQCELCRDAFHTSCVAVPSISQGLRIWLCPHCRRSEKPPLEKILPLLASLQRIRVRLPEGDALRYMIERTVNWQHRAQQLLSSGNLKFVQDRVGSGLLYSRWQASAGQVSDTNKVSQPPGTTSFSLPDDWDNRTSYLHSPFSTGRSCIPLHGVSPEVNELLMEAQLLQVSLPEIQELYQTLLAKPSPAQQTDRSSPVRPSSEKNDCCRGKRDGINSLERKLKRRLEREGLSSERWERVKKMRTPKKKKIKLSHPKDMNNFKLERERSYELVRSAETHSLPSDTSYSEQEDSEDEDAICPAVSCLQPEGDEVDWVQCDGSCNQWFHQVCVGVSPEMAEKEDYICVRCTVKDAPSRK
Experiment: biochemical

compound | tested system | IC50 [nM]
CC(C)c1c(O)nc(-n2ccnc2)nc1Oc1cccnc1 [Example 28a] | KDM5B (Homo sapiens) | 32
CC(C)c1c(O)nc(-n2ccnc2)nc1OCCN1CCOCC1 [Example 123] | KDM5B (Homo sapiens) | 9
CNCCN(C)C(=O)Cn1cc(-c2nc(-n3ccnc3)nc(O)c2C(C)C)cn1 [Example 95] | KDM5B (Homo sapiens) | 6
CC(C)c1c(O)nc(-n2ccnc2)nc1-c1cnn(CC(=O)NCCN2CCCC2)c1 [Example 6] | KDM5B (Homo sapiens) | 4
Cc1nc(-c2ccncc2)nc(O)c1C(C)C [Example 149] | KDM5B (Homo sapiens) | 3320
CC(C)c1c(O)nc(-c2cncs2)nc1-c1cnn(Cc2ccccc2)c1 [Example 20] | KDM5B (Homo sapiens) | 100
Cc1nc(-n2ccnc2C)nc(O)c1C(C)C [Example 148] | KDM5B (Homo sapiens) | 480
CCCn1cc(-c2nc(-n3ccnc3)nc(O)c2C(C)C)cn1 [Example 56] | KDM5B (Homo sapiens) | 15
CC(C)c1c(O)nc(-n2ccnc2)nc1-c1cnn(CC2CC2)c1 [Example 52] | KDM5B (Homo sapiens) | 14
Cc1nc(-n2cnc(CO)c2)nc(O)c1C(C)C [Example 24b] | KDM5B (Homo sapiens) | 1260
CC(C)c1c(O)nc(-n2ccnc2)nc1-c1cnn(C)c1 [Example 55] | KDM5B (Homo sapiens) | 15
CC(C)c1c(O)nc(-n2ccnc2)nc1OCc1cccnc1 [Example 29] | KDM5B (Homo sapiens) | 9
CCn1cc(-c2nc(-n3ccnc3)nc(O)c2C(C)C)cn1 [Example 66] | KDM5B (Homo sapiens) | 19
CC(C)c1c(O)nc(-n2ccnc2)nc1-c1cnn(CC(C)(C)O)c1 [Example 81] | KDM5B (Homo sapiens) | 60
CC(C)c1c(O)nc(-n2ccnc2)nc1OCC(=O)N1CCOCC1 [Example 142] | KDM5B (Homo sapiens) | 35
Oc1nc(-c2cncs2)ncc1C1CC1 [Example 32] | KDM5B (Homo sapiens) | 4420
CC(C)c1c(O)nc(-n2ccnc2)nc1-c1ccc(C(=O)NCCN(C)C)nc1 [Example 8] | KDM5B (Homo sapiens) | 8
CC(C)c1c(O)nc(-n2ccnc2)nc1OCCN1CCCC1=O [Example 132] | KDM5B (Homo sapiens) | 30
CC(C)c1c(O)nc(-n2ccnc2)nc1-n1ccnc1 [Example 28b] | KDM5B (Homo sapiens) | 19
Cc1nc(-c2cn[nH]c2)nc(O)c1C(C)C [Example 26] | KDM5B (Homo sapiens) | 1070

Attribution: patent US20190135793A1
